Source: patent US8299048B2

target: human GR (Homo sapiens); assay: Transrepression Assay (GITAR), TNFα-β-lactamase reporter in U937 cells; type: cell-based; parameters: U937 cells contain an endogenous glucocorticoid receptor (GR); endogenous in cells; host or cells: U937 cells stably transfected with the TNF-alpha promoter/beta-lactamase reporter; conditions: GITAR Emax minus GRAMMER Emax
We label by threshold. Values of GITAR > GRAMM % SEP strictly beneath 20% are criterion met. Values of 20% and up are criterion not met.

In [3]: df
Out[3]:
                                    compound  assigned_category
 0  C[C@]12Cc3cnn(-c4ccc(F)cc4)c3C=C1CC[C@@H]2CN(CC1CC1)S(=O)(=O)c1ccc(-c2ccccc2)cc1  criterion not met
 1  C[C@]12Cc3cnn(-c4ccc(F)cc4)c3C=C1CC[C@@H]2CN(CC(O)C(F)(F)F)S(=O)(=O)Cc1ccccc1C(N)=O (stereo partly shown)      criterion met
 2  Cn1cc(S(=O)(=O)N(CC#N)C[C@H]2CCC3=Cc4c(cnn4-c4ccc(F)cc4)C[C@@]32C)c(C(F)(F)F)n1  criterion not met
 3  COC(=O)c1ccccc1S(=O)(=O)N(CCc1ccccc1F)C[C@H]1CCC2=Cc3c(cnn3-c3ccc(F)cc3)C[C@@]21C      criterion met
 4  C[C@]12Cc3cnn(-c4ccc(F)cc4)c3C=C1CC[C@@H]2CN(CCO)S(=O)(=O)c1cc(Cl)c(Cl)s1  criterion not met
 5  COC(=O)c1ccccc1CS(=O)(=O)N(C[C@H]1CCC2=Cc3c(cnn3-c3ccc(F)cc3)C[C@@]21C)C[C@@H](C)O  criterion not met
 6  COCCN(C[C@H]1CCC2=Cc3c(cnn3-c3ccc(F)cc3)C[C@@]21C)S(=O)(=O)c1ccccc1F  criterion not met
 7  Cn1cc(S(=O)(=O)N(CCc2ccccn2)C[C@H]2CCC3=Cc4c(cnn4-c4ccc(F)cc4)C[C@@]32C)c(C(F)(F)F)n1  criterion not met
 8  Cc1cc(S(=O)(=O)N(CCO)C[C@H]2CCC3=Cc4c(cnn4-c4ccc(F)cc4)C[C@@]32C)c(C)o1      criterion met
 9  C[C@]12Cc3cnn(-c4ccc(F)cc4)c3C=C1CC[C@@H]2CN(CC#N)S(=O)(=O)c1ccc(F)c(F)c1      criterion met
10  CC([C@H]1CCC2=Cc3c(cnn3-c3ccc(F)cc3)C[C@@]21C)N(CCc1ccccn1)S(=O)(=O)Cc1cccnc1 (stereo partly shown)      criterion met
11  CCCS(=O)(=O)N(CC(O)C(F)(F)F)C[C@H]1CCC2=Cc3c(cnn3-c3ccc(F)cc3)C[C@@]21C (stereo partly shown)      criterion met
12  C[C@]12Cc3cnn(-c4ccc(F)cc4)c3C=C1CC[C@@H]2CN(CCc1ccccc1F)S(=O)(=O)Cc1ccccc1Cl      criterion met

###

Target: human GR (Homo sapiens, UniProt P04150)
Sequence (P04150 1-777): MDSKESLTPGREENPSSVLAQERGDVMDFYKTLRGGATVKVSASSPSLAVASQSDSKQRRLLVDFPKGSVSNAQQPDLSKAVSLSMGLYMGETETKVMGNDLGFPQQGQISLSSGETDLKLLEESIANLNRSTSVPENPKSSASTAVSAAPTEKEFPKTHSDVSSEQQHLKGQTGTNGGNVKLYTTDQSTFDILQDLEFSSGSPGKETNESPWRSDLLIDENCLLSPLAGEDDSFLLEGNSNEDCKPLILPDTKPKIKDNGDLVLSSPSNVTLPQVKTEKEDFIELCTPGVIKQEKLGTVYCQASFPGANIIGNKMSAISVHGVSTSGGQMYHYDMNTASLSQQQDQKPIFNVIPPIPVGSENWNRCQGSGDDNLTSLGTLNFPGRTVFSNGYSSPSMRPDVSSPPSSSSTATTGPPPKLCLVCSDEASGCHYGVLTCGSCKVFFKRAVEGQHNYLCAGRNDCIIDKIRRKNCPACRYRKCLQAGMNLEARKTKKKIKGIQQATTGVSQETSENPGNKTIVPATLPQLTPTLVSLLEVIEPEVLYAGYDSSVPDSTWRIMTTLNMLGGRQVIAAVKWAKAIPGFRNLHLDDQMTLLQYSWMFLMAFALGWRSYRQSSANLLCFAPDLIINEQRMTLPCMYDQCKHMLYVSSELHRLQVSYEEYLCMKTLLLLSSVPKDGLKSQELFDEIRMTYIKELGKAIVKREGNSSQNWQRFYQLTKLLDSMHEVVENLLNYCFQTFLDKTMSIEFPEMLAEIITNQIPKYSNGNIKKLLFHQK
Experiment: Trans-Activation Modulation of Glucocorticoid Receptor (GRAMMER), MMTV-LUC reporter, agonist mode
Type: cell-based
Design: endogenous in cells
Conditions: A549 cells; inflection point; read-out: Transactivation A549 Cells GRAMMER IP
Text: This assay assesses the ability of test compounds to control transcription from the MMTV-LUC reporter gene in lung adenocarcinoma A549 cells or MDA-MB-453 cells, a human breast cancer cell line that naturally expresses the human GR. […] The routine transient assay consists of plating 7,000-25,000 cells/well of a white, clear-bottom 96-well plate. […] The cells are trypsinized and counted to the right cell number in the proper amount of fresh media. […]
Entries get a class label from measured EC50. See ranges: bin 1: < 400 nM; bin 2: ≥ 400 nM and < 1000 nM; bin 3: ≥ 1000 nM

In [3]: df
Out[3]:
                            structure_string                                   system  assigned_category
 0  COCCN(C[C@H]1CCC2=Cc3c(cnn3-c3ccc(F)cc3)C[C@@]21C)S(=O)(=O)c1ccccc1F  human GR (Homo sapiens, UniProt P04150)              bin 2
 1  Cc1cc(S(=O)(=O)N(CCO)C[C@H]2CCC3=Cc4c(cnn4-c4ccc(F)cc4)C[C@@]32C)c(C)o1  human GR (Homo sapiens, UniProt P04150)              bin 3
 2  CN(C[C@H]1CCC2=Cc3c(cnn3-c3ccc(F)cc3)C[C@@]21C)S(=O)(=O)CC(F)(F)F  human GR (Homo sapiens, UniProt P04150)              bin 1
 3  C[C@]12Cc3cnn(-c4ccc(F)cc4)c3C=C1CC[C@@H]2CN(CCO)S(=O)(=O)c1cc(C(F)(F)F)ccc1Cl  human GR (Homo sapiens, UniProt P04150)              bin 3
 4  C[C@]12Cc3cnn(-c4ccc(F)cc4)c3C=C1CC[C@@H]2CN(CCO)S(=O)(=O)c1ccc(Oc2ccccc2)cc1  human GR (Homo sapiens, UniProt P04150)              bin 3
 5  COc1ccccc1CCN(C[C@H]1CCC2=Cc3c(cnn3-c3ccccc3)C[C@@]21C)S(=O)(=O)CC(F)(F)F  human GR (Homo sapiens, UniProt P04150)              bin 1
 6  Cc1oncc1S(=O)(=O)N(CCO)C[C@H]1CCC2=Cc3c(cnn3-c3ccc(F)cc3)C[C@@]21C  human GR (Homo sapiens, UniProt P04150)              bin 2
 7  C[C@@H](O)CN(C[C@H]1CCC2=Cc3c(cnn3-c3ccc(F)cc3)C[C@@]21C)S(=O)(=O)Cc1ccccc1C(N)=O  human GR (Homo sapiens, UniProt P04150)              bin 2
 8  C[C@]12Cc3cnn(-c4ccccc4)c3C=C1CC[C@@H]2CN(CCc1ccccc1F)S(=O)(=O)CC(F)(F)F  human GR (Homo sapiens, UniProt P04150)              bin 1
 9  C[C@]12Cc3cnn(-c4ccc(F)cc4)c3C=C1CC[C@@H]2CN(CCO)S(=O)(=O)c1cc(Cl)c(Cl)s1  human GR (Homo sapiens, UniProt P04150)              bin 3
10  C[C@]12Cc3cnn(-c4ccc(F)cc4)c3C=C1CC[C@@H]2CN(CC1CC1)S(=O)(=O)c1ccccc1C(F)(F)F  human GR (Homo sapiens, UniProt P04150)              bin 1
11  C[C@]12Cc3cnn(-c4ccc(F)cc4)c3C=C1CC[C@@H]2CN(CC#N)S(=O)(=O)c1cccc(C#N)c1  human GR (Homo sapiens, UniProt P04150)              bin 2
12  C[C@]12Cc3cnn(-c4ccc(F)cc4)c3C=C1CC[C@@H]2CN(CCO)S(=O)(=O)c1ccccc1F  human GR (Homo sapiens, UniProt P04150)              bin 1
13  C[C@]12Cc3cnn(-c4ccc(F)cc4)c3C=C1CC[C@@H]2CN(CCO)S(=O)(=O)Cc1cccc(C(F)(F)F)c1  human GR (Homo sapiens, UniProt P04150)              bin 3
14  C[C@]12Cc3cnn(-c4ccc(F)cc4)c3C=C1CC[C@@H]2CN(CCO)S(=O)(=O)c1ccc(F)c(F)c1  human GR (Homo sapiens, UniProt P04150)              bin 2
15  CCCS(=O)(=O)N(CCOC)C[C@H]1CCC2=Cc3c(cnn3-c3ccc(F)cc3)C[C@@]21C  human GR (Homo sapiens, UniProt P04150)              bin 2
16  Cc1noc(C)c1S(=O)(=O)N(C)C[C@H]1CCC2=Cc3c(cnn3-c3ccc(F)cc3)C[C@@]21C  human GR (Homo sapiens, UniProt P04150)              bin 1
17  C[C@]12Cc3cnn(-c4ccc(F)cc4)c3C=C1CC[C@@H]2CN(CCc1ccccc1F)S(=O)(=O)Cc1ccccc1C(N)=O  human GR (Homo sapiens, UniProt P04150)              bin 2
18  C[C@]12Cc3cnn(-c4ccc(F)cc4)c3C=C1CC[C@@H]2CN(CCc1ccccc1F)S(=O)(=O)c1ccccc1F  human GR (Homo sapiens, UniProt P04150)              bin 1
19  C[C@]12Cc3cnn(-c4ccc(F)cc4)c3C=C1CC[C@@H]2CN(CC#N)S(=O)(=O)Cc1cccc(C(F)(F)F)c1  human GR (Homo sapiens, UniProt P04150)              bin 3
20  C[C@]12Cc3cnn(-c4ccc(F)cc4)c3C=C1CC[C@@H]2CN(CCO)S(=O)(=O)c1ccccc1C(F)(F)F  human GR (Homo sapiens, UniProt P04150)              bin 2
21  C[C@@H](O)CN(C[C@H]1CCC2=Cc3c(cnn3-c3ccc(F)cc3)C[C@@]21C)S(=O)(=O)c1ccc(F)c(Cl)c1  human GR (Homo sapiens, UniProt P04150)              bin 2
22  CCCCCc1ccc(S(=O)(=O)N(CC2CC2)C[C@H]2CCC3=Cc4c(cnn4-c4ccc(F)cc4)C[C@@]32C)cc1  human GR (Homo sapiens, UniProt P04150)              bin 3
